biological target: chimeric BTLA of humanised-BTLA mice (human extracellular region, murine transmembrane and signaling … (human; mouse, UniProt Q7TSA3 184-306, limits assumed); assay: cell-based or functional assay
Sequence (Q7TSA3 other isoform, or with tags, fused parts or gaps mutant limits assumed): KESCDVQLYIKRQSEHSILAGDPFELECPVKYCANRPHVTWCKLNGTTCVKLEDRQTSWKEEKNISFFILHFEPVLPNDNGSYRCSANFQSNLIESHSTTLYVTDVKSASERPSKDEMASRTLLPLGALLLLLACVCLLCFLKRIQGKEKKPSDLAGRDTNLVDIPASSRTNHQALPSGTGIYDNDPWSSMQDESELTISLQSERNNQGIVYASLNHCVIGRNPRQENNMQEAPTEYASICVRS
Quantity: MLR (CD4 T cell proliferation) repeat 2, % inhibition (%)
Just the number please, in %, no unit attached.

Incoming: Recorded MLR (CD4 T cell proliferation) repeat 2, % inhibition of 7A1 (antibody, IgG1, V domains shown) VH: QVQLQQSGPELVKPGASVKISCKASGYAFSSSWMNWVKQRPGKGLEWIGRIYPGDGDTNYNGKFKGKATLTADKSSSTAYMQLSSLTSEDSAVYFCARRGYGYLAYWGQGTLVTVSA VL: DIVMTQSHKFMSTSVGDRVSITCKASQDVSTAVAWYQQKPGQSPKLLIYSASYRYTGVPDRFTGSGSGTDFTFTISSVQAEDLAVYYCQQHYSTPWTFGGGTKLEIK , please.
Outgoing: 29

Incoming: Which MLR (CD4 T cell proliferation) repeat 2, % inhibition value is on record for 15B6 (antibody, IgG1, V domains shown) VH: QVQLQQPGAELVKPGASVKLSCKASGYTFTSYWMHWVKQRPGQGLEWIGMIHPNSGSTNYNEKFKSKATLTVDKSSSTAYMQLSSLTSEDSAVYYCARKRGGLGDYWGQGTSVTVSS VL: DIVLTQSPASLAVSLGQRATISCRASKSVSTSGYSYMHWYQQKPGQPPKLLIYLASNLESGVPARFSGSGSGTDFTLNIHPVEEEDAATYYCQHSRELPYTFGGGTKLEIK ?
Outgoing: 13

Next:
Incoming: What does the record list as MLR (CD4 T cell proliferation) repeat 2, % inhibition for 831 (antibody, V domains shown) VH: DVQLQESGPDLVKPSQSLSVTCTVTGYSITSGYSWHWIRQFPGNKLEWMGYIHYSGSTNYNPSLKSRISITRDTSKNQFFLQLSSVTTEDTATYYCASGPHRYDGVWFAYWGQGTLVTVSS VL: EIVLTQSPTTMAASPGEKITITCSASSSISSNYLHWYQQKPGFSPKLLIYRTSNLASGVPARFSGSGSGTSYSLTIGTMEAEDVATYYCQQGTNIPLTFGAGTKLEIK ?
Outgoing: 34
